Origin of measurements: patent US20240059673A1

subject_of_test: TLR7 (Homo sapiens)
Construct: lymphocytes, monocytes and dendritic cells that express TLR7, TLR8 and TLR9; endogenous in cells; host or cells: cryopreserved human PBMCs from healthy donors
Sequence (Q9NYK1 27-1049): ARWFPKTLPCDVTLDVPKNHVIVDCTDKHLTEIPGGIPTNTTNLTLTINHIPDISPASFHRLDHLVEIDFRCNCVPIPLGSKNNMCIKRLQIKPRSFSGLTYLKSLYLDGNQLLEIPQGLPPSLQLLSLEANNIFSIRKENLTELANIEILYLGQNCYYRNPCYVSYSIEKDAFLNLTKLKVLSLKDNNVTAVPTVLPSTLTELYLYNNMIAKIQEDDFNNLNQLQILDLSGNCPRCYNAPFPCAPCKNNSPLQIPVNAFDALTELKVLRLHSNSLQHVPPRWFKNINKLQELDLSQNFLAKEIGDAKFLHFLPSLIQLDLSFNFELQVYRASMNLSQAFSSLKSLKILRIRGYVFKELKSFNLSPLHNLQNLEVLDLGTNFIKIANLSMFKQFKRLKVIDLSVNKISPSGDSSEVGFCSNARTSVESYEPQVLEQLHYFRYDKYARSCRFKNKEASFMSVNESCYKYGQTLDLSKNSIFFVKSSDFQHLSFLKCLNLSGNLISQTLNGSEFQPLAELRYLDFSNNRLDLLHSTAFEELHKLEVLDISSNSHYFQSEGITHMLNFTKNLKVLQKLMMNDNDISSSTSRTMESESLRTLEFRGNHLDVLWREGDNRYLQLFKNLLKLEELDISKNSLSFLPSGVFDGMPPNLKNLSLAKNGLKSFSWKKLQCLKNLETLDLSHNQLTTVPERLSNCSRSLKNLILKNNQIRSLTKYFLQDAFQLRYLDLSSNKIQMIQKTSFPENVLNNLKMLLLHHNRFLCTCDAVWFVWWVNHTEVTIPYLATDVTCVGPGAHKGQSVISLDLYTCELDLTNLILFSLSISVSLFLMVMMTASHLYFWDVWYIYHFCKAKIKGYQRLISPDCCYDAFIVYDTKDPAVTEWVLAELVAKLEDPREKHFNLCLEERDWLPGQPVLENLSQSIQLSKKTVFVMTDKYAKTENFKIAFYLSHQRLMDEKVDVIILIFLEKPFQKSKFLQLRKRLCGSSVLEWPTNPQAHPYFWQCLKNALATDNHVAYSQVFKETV
assay_explanation: Human PBMC cell-based assay, TLR7 agonist stimulation
measurement_conditions: human PBMCs; TLR7 agonist GS-986 400 nM; 6 hours; cytokines (IL-6 and IFNα) in supernatant; Table 2; read-out: TLR-7 EC50
pEC50: −log10 of the molar value.
endpoint_label: pEC50

Cc1cc(-c2ccc3c(C)c(C4CCN(C(=O)c5cncn5C)CC4)[nH]c3c2)cc(C)n1 ... < 6.00
Cc1cc(-c2ccc3c(C)c(C4CCN(C(=O)CN(C)C)CC4)[nH]c3c2)cc(C)n1 ... < 6.00

Now let's try a different one.
pEC50 lookup needed for "Cc1cc(-c2ccc3c(C)c(C4CCN(C(=O)CC5CCNCC5)CC4)[nH]c3c2)cc(C)n1" , thanks.
< 6.00

---

subject_of_test: TLR7 (Homo sapiens)
Construct: lymphocytes, monocytes and dendritic cells that express TLR7, TLR8 and TLR9; endogenous in cells; host or cells: cryopreserved human PBMCs from healthy donors
assay_explanation: Human PBMC cell-based assay, TLR7 agonist stimulation
measurement_conditions: human PBMCs; TLR7 agonist GS-986 400 nM; 6 hours; cytokines (IL-6 and IFNα) in supernatant; Table 2; read-out: TLR-7 EC50
endpoint_label: EC50 (nM)

Cc1cc(-c2ccc3c(C)c(-c4cnc(N5CCNCC5)nc4)[nH]c3c2)cc(C)n1 ... 7.3

a = CCc1c(-c2ccc(N3CCNCC3)nc2)[nH]c2cc(-c3cc(C)nc(C)c3)ccc12
b = Cc1cc(-c2ccc3c(C)c(-c4ccc(N5CCN(CCO)CC5)nc4)[nH]c3c2)cc(C)n1
Which entry shows the lesser value of EC50 here, a or b ? Field: selected label. Fill in the label of the entry you choose.
a
(a: 6.2 nM, b: 10.2 nM)
